- experimentalSystem: UniProt:P45984
- Sequence (P45984 whole entry): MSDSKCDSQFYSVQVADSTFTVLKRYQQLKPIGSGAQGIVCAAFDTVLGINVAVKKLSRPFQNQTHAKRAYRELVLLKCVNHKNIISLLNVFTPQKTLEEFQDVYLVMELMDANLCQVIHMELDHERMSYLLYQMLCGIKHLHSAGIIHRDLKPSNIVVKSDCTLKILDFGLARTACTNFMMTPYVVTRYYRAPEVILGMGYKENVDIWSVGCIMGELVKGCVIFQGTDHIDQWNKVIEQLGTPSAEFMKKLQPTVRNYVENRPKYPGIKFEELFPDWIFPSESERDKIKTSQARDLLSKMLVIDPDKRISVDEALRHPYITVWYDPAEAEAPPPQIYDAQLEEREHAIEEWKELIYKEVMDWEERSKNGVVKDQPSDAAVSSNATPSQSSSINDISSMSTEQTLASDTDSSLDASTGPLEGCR
- method: biochemical
- Format: binding
- experimentalContext: ITC, in presence of pepJIP1 (saturating)
pKd: −log10 of the molar value.
assayMetric: pKd

                                   compound  experimentalsystem  assaymetric  resultvalue
0  NC(=O)c1ccsc1NC(=O)Cc1csc2ccccc12 [Compound 25]      UniProt:P45984          pKd         5.51

FYI, the data here is from paper PMC3089059.
